# Read-out: MicroRNA 122 (MIR122), gene 406906
# EXPERIMENTAL_DETAILS: LTEA_HepaRG_MIR122: Life Technologies and Expression Analysis (LTEA) Assay for MicroRNA 122 (MIR122) using HepaRG (AID 2283516)
# CONDITIONS_USED: mRNA level, 48 h; actives raise or lower the signal
# Procedure: LTEA_HepaRG is a cell based, multiplexed-readout assay that uses HepaRG, a human liver cell line, with measurements taken at 48 hours after chemical dosing on a 96-well plate.LTEA_HepaRG_MIR122 is one of 102 assay component(s) measured in the LTEA HepaRG cell culture assay. It is a marker of MicroRNA.Data from the assay component LTEA_HepaRG_MIR122 was analyzed into 1 endpoint. […]
Calls of active or inactive are those of the source. How the source made its calls: active means hit-call score of the fitted dose curve at least 0.9, where 1 is the maximum; inactive means score below 0.9.
Please answer using one outcome listed in t = active, f = inactive

What did this assay record as the result for CCOC(=O)COc1ccc2c(c1)CC(NCC(O)c1cccc(Cl)c1)CC2 (stereo not given) ?
f

Next entry: CC(C)=CCCC(C)CCO (stereo not given)
f

Then this molecule: `CC[C@H](C)C(=O)O[C@H]1C[C@@H](C)C=C2C=C[C@H](C)[C@H](CC[C@@H]3C[C@@H](O)CC(=O)O3)[C@H]21`
f

For `CC(C)=CCCC(C)=CC=O` then?
f

And then `CC(C)CCCCCCCOC(=O)CCCCC(=O)OCCCCCCCC(C)C` , what is it?
f

Thanks! And `COc1ccc(/C=C/S(=O)(=O)NC(=O)c2ccc(C)cc2Cl)cc1` ?
f

Can you check `CC1(C)C(=O)N(Br)C(=O)N1Br` next?
f

And the next one, `Cc1c(-c2cccnc2)c2ccccc2n1CCCCC(=O)O` ?
f

Entry `CC(C)CCO` please
f

Next up: O=c1n(CC2CO2)c(=O)n(CC2CO2)c(=O)n1CC1CO1 (stereo not given)
f

// next record `Cn1c(=O)cc(Oc2ccc(F)cc2F)c2cnc(NCC(C)(C)O)nc21`
f

`CCOCCOCCOCCO` , same question.
f

Please give the result for `Cc1ccc(O)cc1` too.
f

Item: `CCCCCCCCO`
f

Ok, now CCCCC(CC)COC(=O)c1ccc(C(=O)OCC(CC)CCCC)cc1 (stereo not given)
f

Check CCCCC(CC)COC(=O)CCCCCCCCC(=O)OCC(CC)CCCC (stereo not given) too.
f

Same again, this time with `C1=CCCC=CCCC=CCC1`
f

Same lookup for `C[C@](N)(Cc1ccc(O)c(O)c1)C(=O)O` , please.
f

Ok, now `C=CC(=C)CCC=C(C)C`
f

And for `CC(=O)OCCC(C)C` ?
f

How about `CC(C)(O)c1coc(S(=O)(=O)NC(=O)Nc2c3c(cc4c2CCC4)CCC3)c1` ?
f

Could you do the same for `CCCCCCCCCCCCc1ccccc1` , please?
f

Now try `Clc1nc(Cl)c(Cl)c(Cl)c1Cl` .
f

What would you report for `O=C(CCCCCCCCc1cccnc1)N1CCC(C=C(c2ccccc2)c2ccccc2)CC1` ?
t

What about `O=C(O)CCN(C1(C(=O)NO)CCCC1)S(=O)(=O)c1ccc(Oc2ccc(F)cc2)cc1` ?
f

Input `CC[C@H]1OC(=O)[C@H](C)[C@@H](O[C@H]2C[C@@](C)(OC)[C@@H](O)[C@H](C)O2)[C@H](C)[C@@H](O[C@@H]2O[C@H](C)C[C@H](N(C)C)[C@H]2O)[C@](C)(O)C[C@@H](C)C(=O)[C@H](C)[C@@H](O)[C@]1(C)O`
f

What do you get for `COCCOc1cc2cc(C(=O)NC3CCN(C(C)C)CC3)n(CC(=O)Nc3ccc(Cl)cn3)c2cn1` ?
t

Record: `O=C(O)c1cccc(Oc2ccccc2)c1`
f

Next molecule up: `COc1cccc(-c2ccc(/C=C\CN3CCCCCC3)cc2Cl)c1`
f

`O=C(O)c1cccc(N(Cc2cccnc2)c2ccc(OC(F)F)c(OC(F)F)c2)c1` , same question.
f

Quick one: `CCc1cc(SCc2sc(-c3ccc(C(F)(F)F)cc3)nc2CN2CCN(c3ccc(OC)cc3)CC2)ccc1OCC(=O)O`
t

Another molecule to look at: `CC(C)=CCC/C(C)=C\CO`
f

What would you report for O=C(O)CC(O)C(=O)O (stereo not given) ?
f

Again, but for `CCN(C(=O)c1cc(C)cc(OC[C@H](C)Nc2ccncc2)c1)C(C)C`
t

Same again, this time with `CCOCCO`
f

Would you mind doing `CC(C)c1cccc(C(C)C)c1N1C(=O)c2ccc(O)cc2C1=O` as well?
t

Next molecule: `Cn1c(=O)c2c(ncn2C)n(C)c1=O`
f

Here is the next molecule: `CNCc1ccc(NC(=O)c2c[nH]c3c2C(=O)CCC3)cc1`
f

Please give the result for `CN(C)c1ccc(N=NS(=O)(=O)O)cc1` too.
f

Try the molecule O=c1[nH]c2ccc(S(=O)CCN3CCC(Cc4ccc(F)cc4)CC3)cc2o1 (stereo not given)
f

Quick one: `COCCOCCOCCOC`
f

Proceed to `Nc1nc2ncc(CNc3ccc(C(=O)N[C@@H](CCC(=O)O)C(=O)O)cc3)nc2c(=O)[nH]1`
f

Query `Nc1ccc(Nc2ccccc2)cc1` next
f

Entry O=C1OC(=O)C2C3C=CC(C3)C12 (stereo not given) please
f

Moving on to the next molecule: `CC1=CC(=O)CC(C)(C)C1`
f

Another molecule: `C=CCCCCCCCCC(=O)O`
f

Another molecule to check: Fc1ccccc1[C@@H](F)COC1CCC(Nc2ncnc3[nH]ncc23)CC1 (stereo not given in full)
t

# iterate: `COC(=O)c1ccccc1O`
f

Let us now turn to `COC(=O)CC(=O)OC`
f

Here is the next molecule: CC(O)CN(CCN(CC(C)O)CC(C)O)CC(C)O (stereo not given)
f
